target or test system: HLA-B*07:02
run description: IEDB peptide-MHC binding, purified MHC/direct/fluorescence; filed as Kd, often an IC50 or EC50 that approximates it; bounds were set here for any values at or beyond the usual limits of such assays
settings: source organism: Yersinia enterocolitica
quantity: Kd

Measured Kd (HLA-B*07:02), entry GYGRVNAGK : ≥ 20 µM

----------
Catalogue of pKd readings, one per entry.
target or test system: HLA-B*18:01
run description: IEDB peptide-MHC binding, purified MHC/direct/fluorescence; filed as Kd, often an IC50 or EC50 that approximates it; bounds were set here for any values at or beyond the usual limits of such assays
settings: source organism: Listeria monocytogenes serotype 4b str. H7858
pKd: −log10 of the molar value.

[[record]]
monomer_sequence = "FPDGKPFTL"
quantity = "pKd"
value = "≤ 4.70"


# pKd of ERYPGGVSL = ≤ 4.70

These entries and their values trace back to the Immune Epitope Database (IEDB).
